Source: patent US20210317140A1

target: PI3Kδ (Homo sapiens, UniProt O00329); construct: purchased Reaction Biology Corporation; test: PI3Kδ kinase assay (HTRF, PIP3 detection); format: biochemical; conditions: 0.01 μM compound, 10 μM ATP
Sequence (O00329 whole entry): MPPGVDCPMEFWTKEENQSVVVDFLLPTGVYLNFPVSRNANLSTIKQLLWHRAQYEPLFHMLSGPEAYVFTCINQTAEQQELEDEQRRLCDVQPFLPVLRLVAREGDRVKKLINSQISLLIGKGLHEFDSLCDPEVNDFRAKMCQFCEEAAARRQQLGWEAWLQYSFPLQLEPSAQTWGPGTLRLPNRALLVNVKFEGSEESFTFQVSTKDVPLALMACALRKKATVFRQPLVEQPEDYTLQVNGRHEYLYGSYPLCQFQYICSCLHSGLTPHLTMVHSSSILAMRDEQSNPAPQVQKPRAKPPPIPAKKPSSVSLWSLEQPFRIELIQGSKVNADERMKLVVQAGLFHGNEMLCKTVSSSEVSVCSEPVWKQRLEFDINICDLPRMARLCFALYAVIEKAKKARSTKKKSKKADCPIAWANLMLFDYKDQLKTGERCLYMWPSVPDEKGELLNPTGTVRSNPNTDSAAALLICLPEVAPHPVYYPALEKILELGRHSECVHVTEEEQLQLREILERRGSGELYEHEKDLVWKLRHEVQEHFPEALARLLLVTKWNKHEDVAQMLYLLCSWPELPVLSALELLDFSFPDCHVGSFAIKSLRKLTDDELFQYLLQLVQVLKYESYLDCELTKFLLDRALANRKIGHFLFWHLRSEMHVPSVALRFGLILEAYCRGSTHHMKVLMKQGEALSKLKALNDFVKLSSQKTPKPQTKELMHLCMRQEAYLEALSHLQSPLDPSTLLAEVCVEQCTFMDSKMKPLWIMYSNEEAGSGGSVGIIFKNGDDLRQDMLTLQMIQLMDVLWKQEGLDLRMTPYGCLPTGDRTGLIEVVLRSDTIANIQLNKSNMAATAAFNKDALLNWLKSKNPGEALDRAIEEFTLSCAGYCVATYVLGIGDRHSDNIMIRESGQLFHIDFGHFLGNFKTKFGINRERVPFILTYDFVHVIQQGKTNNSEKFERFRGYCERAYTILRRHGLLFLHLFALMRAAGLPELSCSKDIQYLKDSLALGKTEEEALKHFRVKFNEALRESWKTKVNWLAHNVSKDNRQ
Sequence (P27986 whole entry partner): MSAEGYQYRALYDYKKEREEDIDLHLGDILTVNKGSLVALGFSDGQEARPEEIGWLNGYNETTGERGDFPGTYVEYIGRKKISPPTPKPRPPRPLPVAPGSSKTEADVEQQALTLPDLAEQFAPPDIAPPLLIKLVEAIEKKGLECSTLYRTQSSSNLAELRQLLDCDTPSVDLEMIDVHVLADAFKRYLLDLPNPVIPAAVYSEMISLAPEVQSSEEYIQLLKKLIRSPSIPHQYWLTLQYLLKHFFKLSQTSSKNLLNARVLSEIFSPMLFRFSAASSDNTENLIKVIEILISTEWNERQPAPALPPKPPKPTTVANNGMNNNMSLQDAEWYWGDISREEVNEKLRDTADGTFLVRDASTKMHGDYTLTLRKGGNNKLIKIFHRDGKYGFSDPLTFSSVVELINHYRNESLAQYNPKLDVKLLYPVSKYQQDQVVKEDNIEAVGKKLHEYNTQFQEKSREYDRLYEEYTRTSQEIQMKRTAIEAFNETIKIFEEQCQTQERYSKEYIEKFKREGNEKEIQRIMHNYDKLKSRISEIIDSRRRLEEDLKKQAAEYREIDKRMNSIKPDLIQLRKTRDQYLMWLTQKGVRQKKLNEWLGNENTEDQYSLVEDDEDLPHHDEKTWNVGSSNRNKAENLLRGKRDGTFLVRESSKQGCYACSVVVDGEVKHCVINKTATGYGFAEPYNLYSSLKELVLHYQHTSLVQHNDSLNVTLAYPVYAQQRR
MEASURED ENDPOINT: PI3Kδ @ 0.01 μM (% Inh)

Reference set (4 entries):
Exercise: Retrieve PI3Kδ @ 0.01 μM (% Inh) measured for Nc1ncnc2c1c(-c1cc(O)c(F)c(F)c1)nn2C1CCc2ccccc2C1 (centres unmarked) and print it.
Key: 70.35

Exercise: Return the recorded PI3Kδ @ 0.01 μM (% Inh) value; entry: NCc1ccc(-c2nn(C3Cc4ccccc4C3)c3ncnc(N)c23)cc1
Key: −2.71

Exercise: Give the reported value of PI3Kδ @ 0.01 μM (% Inh) for this record: Nc1cc(-c2nn(C3Cc4ccccc4C3)c3ncnc(N)c23)ccc1F
Key: 13.47

Exercise: Write down PI3Kδ @ 0.01 μM (% Inh) measured for item Nc1ncnc2c1c(-c1cc(O)c(F)c(F)c1)nn2C1CCc2ncccc21 (centres unmarked)
Key: 4.71

[A] N#Cc1cc(-c2nn(C3Cc4ccccc4C3)c3ncnc(N)c23)cc(O)c1F
[B] NC(=O)c1cc(-c2nn(C3CCc4ccccc4C3)c3ncnc(N)c23)cc(O)c1F (centres unmarked)
Exercise: Returns: the argument ( A or B ) having the larger PI3Kδ @ 0.01 μM (% Inh). I would appreciate it if you answered with the label of your choice.
Key: A

[I] Nc1ncnc2c1c(-c1ccc(F)c(F)c1)nn2C1Cc2ccccc2C1
[II] Nc1ncnc2c1c(-c1cc(O)c(F)c(Cl)c1)nn2C1Cc2ccccc2C1
[III] Nc1ncnc2c1c(-c1cc(O)c(F)c(F)c1)c(Cl)n2C1Cc2ccccc2C1
[IV] COc1cc(-c2nn(C3Cc4ccccc4C3)c3ncnc(N)c23)ccc1O
[V] Nc1ncnc2c1c(-c1cc(F)c(F)c(F)c1)nn2C1Cc2ccccc2C1
Exercise: Arrange these compounds by their PI3Kδ @ 0.01 μM (% Inh), starting with the largest number. Put the labels in the requested order and write them down.
Key: II, IV, V, I, III
(II: 75.86 % Inh, IV: 35.56 % Inh, V: 17.21 % Inh, I: 0.76 % Inh, III: −6.1 % Inh)

###

system: CD69+B220+ cells; test: B cell activation assay (IgD-stimulated splenocytes, CD69+B220+ cells by FACS); format: cell-based; conditions: 100 nM compound, mouse splenocytes, IgD 3 μg/mL, 4 h
MEASURED ENDPOINT: CD69 @ 100 nM (% Inh)

Exercise: Query CD69 @ 100 nM (% Inh) for Nc1ncnc2c1c(-c1cc(F)c3c(c1)NCCO3)nn2C1CCc2ccccc2C1 (centres unmarked)
Key: 14.44 ± 2.64 (n = 3) % Inh

Exercise: Supply reported CD69 @ 100 nM (% Inh) belonging to this compound: Nc1ncnc2c1c(-c1cc(O)c(F)c(C(F)(F)F)c1)nn2C1Cc2ccccc2C1
Key: 81.06 ± 20.76 (n = 7) % Inh

Exercise: Please list CD69 @ 100 nM (% Inh) recorded for the compound Nc1ncnc2c1c(-c1cc(O)c(F)c(F)c1)nn2C1CCc2ccccc2C1 (centres unmarked)
Key: 47.52 ± 5.57 (n = 3) % Inh

Exercise: Return reported CD69 @ 100 nM (% Inh). Input compound: Nc1ncnn2c(C3Cc4ccccc4C3)cc(-c3cc(O)c(F)c(F)c3)c12
Key: 2.68 ± 2.32 (n = 3) % Inh

Exercise: Recall and state the measured CD69 @ 100 nM (% Inh) for Nc1ncnc2c1c(-c1cc(O)c(F)c(Cl)c1)cn2C1Cc2ccccc2C1 .
Key: −11.51 ± 15.89 (n = 3) % Inh

Exercise: Please give measured CD69 @ 100 nM (% Inh) of the following entry: NC(=O)c1cc(-c2nn(C3Cc4ccccc4C3)c3ncnc(N)c23)cc(O)c1F
Key: 27.67 ± 13.46 (n = 3) % Inh

Exercise: Input Nc1ncnc2c1c(-c1cc(O)c(F)c(F)c1)nn2C1CCc2ncccc21 (centres unmarked) , output reported CD69 @ 100 nM (% Inh).
Key: 12.35 ± 7.52 (n = 3) % Inh

Exercise: Provide measured CD69 @ 100 nM (% Inh) value, entry: Nc1ncnc2c1c(-c1cc(O)c(F)c(Cl)c1)nn2C1Cc2ccccc2C1
Key: 46.59 ± 11.89 (n = 3) % Inh
